Consider the following compounds; for each one, report its IC50.
Target: factor D (Homo sapiens, UniProt P00746)
Construct: made in house; host or cells: E. coli
Sequence (P00746 26-253): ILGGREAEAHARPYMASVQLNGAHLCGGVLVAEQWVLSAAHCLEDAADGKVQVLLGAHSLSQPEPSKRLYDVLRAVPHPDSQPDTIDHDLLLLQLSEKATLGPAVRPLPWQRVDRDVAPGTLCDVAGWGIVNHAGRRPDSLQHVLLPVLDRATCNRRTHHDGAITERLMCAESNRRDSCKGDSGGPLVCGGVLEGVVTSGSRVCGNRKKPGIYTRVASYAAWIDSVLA
Test: factor D inhibition assay of Biological Example 2
Format: biochemical
Answers are plain numbers, in nM.

Here are 3 compounds together with their reported answers.
> print(dat)
                                   compound  measured.attribute  experimental.result
1  N[C@H](CO)c1cccc(-c2cc(COc3ccccc3CC(=O)O)cc(C(O)C3CCCCC3)c2)c1 (single isomer, unassigned) [116-I b) (tr = 6.3 min)]                IC50                   24
2  NCc1cccc(-c2nc(C(=O)Nc3ccccc3CC(=O)O)c[nH]2)c1                IC50                 1130
3  NCc1cccc(-c2ccnc(COc3ccccc3CC(=O)O)c2)c1F                IC50                    8

// next entry
query: Notebook: pull reported IC50 for factor D (Homo sapiens, UniProt P00746), entry CC(=O)N(C)c1cc(COc2ccccc2CC(=O)O)cc(-c2cccc([C@@H](C)N)c2F)c1
result: 107
